- Assay Comment: Plasma toxicokinetics after single gavage administration in mice
- Assay type: in vivo, B6C3F1/N mice
- Condition Notes: male, B6C3F1/N, mouse, plasma, po, 34 mg/kg
Property Label: Tmax (min)
Numbers only; they are read as min.

Input line: GET /values?readout=Tmax&item= `Oc1ccc(C(c2ccc(O)cc2)(C(F)(F)F)C(F)(F)F)cc1`
Output line: 27.3

---

- Assay Comment: Plasma toxicokinetics after single intravenous administration in mice
- Format: in vivo, B6C3F1/N mice
- Condition Notes: female, B6C3F1/N, mouse, iv, 34 mg/kg, K10 Half-Life, free BPAF, female mice, 34 mg/kg IV, mean (SE)
Property Label: half-life (min)
Numbers only; they are read as min.

Input line: GET /values?readout=half-life&item= `Oc1ccc(C(c2ccc(O)cc2)(C(F)(F)F)C(F)(F)F)cc1`
Output line: 7.14

---

- Assay Comment: Plasma toxicokinetics after single gavage administration in rats
- Assay type: in vivo, Harlan Sprague Dawley rats
- Condition Notes: male, Harlan Sprague Dawley (Hsd:Sprague Dawley SD), rat, plasma, po, 340 mg/kg
Property Label: bioavailability
Number first, unit second: that is the form wanted.

Input line: GET /values?readout=bioavailability&item= Oc1ccc(C(c2ccc(O)cc2)(C(F)(F)F)C(F)(F)F)cc1 [BPAF, Bisphenol AF]
Output line: 1.07%

---

- Assay Comment: Plasma toxicokinetics after single gavage administration in rats
- Format: in vivo, Harlan Sprague Dawley rats
- Condition Notes: female, Hsd:Sprague Dawley SD, rat, plasma, po, 34 mg/kg
Property Label: AUC(0-inf) (ng·h/mL)
Numbers only; they are read as ng·h/mL.

Input line: GET /values?readout=AUC(0-inf)&item= `Oc1ccc(C(c2ccc(O)cc2)(C(F)(F)F)C(F)(F)F)cc1`
Output line: 461

---

- Assay Comment: Plasma toxicokinetics after single intravenous administration in rats
- Format: in vivo, Harlan Sprague Dawley rats
- Condition Notes: female, Hsd:Sprague Dawley SD, rat, iv, 34 mg/kg
Property Label: Vd (L/kg)
Numbers only; they are read as L/kg.

Input line: GET /values?readout=Vd&item= `Oc1ccc(C(c2ccc(O)cc2)(C(F)(F)F)C(F)(F)F)cc1`
Output line: 0.697

---

- Assay Comment: Plasma toxicokinetics after single intravenous administration in mice
- Assay type: in vivo, B6C3F1/N mice
- Condition Notes: male, B6C3F1/N, mouse, iv, 34 mg/kg, Beta half-life, free BPAF, male mice, 34 mg/kg IV, mean (SE)
Property Label: half-life (h)
Numbers only; they are read as h.

Input line: GET /values?readout=half-life&item= `Oc1ccc(C(c2ccc(O)cc2)(C(F)(F)F)C(F)(F)F)cc1`
Output line: 3.76

---

- Assay Comment: Plasma toxicokinetics after single gavage administration in rats
- Assay type: in vivo, Harlan Sprague Dawley rats
- Condition Notes: male, Hsd:Sprague Dawley SD, rat, plasma, po, 34 mg/kg, Alpha Half-life, free BPAF; male rats; 34 mg/kg gavage; plasma; mean (SE)
Property Label: half-life (min)
Numbers only; they are read as min.

Input line: GET /values?readout=half-life&item= `Oc1ccc(C(c2ccc(O)cc2)(C(F)(F)F)C(F)(F)F)cc1`
Output line: 29.5

---

- Assay Comment: Plasma toxicokinetics after single gavage administration in rats
- Type: in vivo, Harlan Sprague Dawley rats
- Condition Notes: male, Hsd:Sprague Dawley SD, rat, plasma, po, 34 mg/kg
Property Label: AUC(0-inf) (ng·h/mL)
Numbers only; they are read as ng·h/mL.

Input line: GET /values?readout=AUC(0-inf)&item= Oc1ccc(C(c2ccc(O)cc2)(C(F)(F)F)C(F)(F)F)cc1 [BPAF, Bisphenol AF]
Output line: 399

---

- Assay Comment: Plasma toxicokinetics after single gavage administration in rats
- Format: in vivo, Harlan Sprague Dawley rats
- Condition Notes: female, Hsd:Sprague Dawley SD, rat, plasma, po, 34 mg/kg, K10 Half-Life, free BPAF; female rats; 34 mg/kg gavage; plasma; mean (SE)
Property Label: half-life
Number first, unit second: that is the form wanted.

Input line: GET /values?readout=half-life&item= `Oc1ccc(C(c2ccc(O)cc2)(C(F)(F)F)C(F)(F)F)cc1`
Output line: 3.35 h

---

- Assay Comment: Plasma toxicokinetics after single gavage administration in mice
- Type: in vivo, B6C3F1/N mice
- Condition Notes: male, B6C3F1/N, mouse, plasma, po, 34 mg/kg, Beta Half-life, free BPAF; male mice; 34 mg/kg gavage; mean (SE)
Property Label: half-life (h)
Numbers only; they are read as h.

Input line: GET /values?readout=half-life&item= `Oc1ccc(C(c2ccc(O)cc2)(C(F)(F)F)C(F)(F)F)cc1`
Output line: 4.73

---

- Assay Comment: Plasma toxicokinetics after single intravenous administration in mice
- Assay type: in vivo, B6C3F1/N mice
- Condition Notes: female, B6C3F1/N, mouse, iv, 34 mg/kg
Property Label: AUC(0-inf)
Number first, unit second: that is the form wanted.

Input line: GET /values?readout=AUC(0-inf)&item= `Oc1ccc(C(c2ccc(O)cc2)(C(F)(F)F)C(F)(F)F)cc1`
Output line: 15800 ng·h/mL

---

- Assay Comment: Plasma toxicokinetics after single intravenous administration in mice
- Format: in vivo, B6C3F1/N mice
- Condition Notes: male, B6C3F1/N, mouse, iv, 34 mg/kg
Property Label: Vd (L/kg)
Numbers only; they are read as L/kg.

Input line: GET /values?readout=Vd&item= `Oc1ccc(C(c2ccc(O)cc2)(C(F)(F)F)C(F)(F)F)cc1`
Output line: 8.32

---

- Assay Comment: Plasma toxicokinetics after single gavage administration in rats
- Format: in vivo, Harlan Sprague Dawley rats
- Condition Notes: both, Hsd:Sprague Dawley SD, rat, plasma, po
Property Label: bioavailability

Input line: GET /values?readout=bioavailability&item= `Oc1ccc(C(c2ccc(O)cc2)(C(F)(F)F)C(F)(F)F)cc1`
Output line: ~1%

---

- Assay Comment: Plasma toxicokinetics after single gavage administration in mice
- Format: in vivo, B6C3F1/N mice
- Condition Notes: female, B6C3F1/N, mouse, plasma, po, 34 mg/kg, Beta Half-life, free BPAF; female mice; 34 mg/kg gavage; mean (SE)
Property Label: half-life (h)
Numbers only; they are read as h.

Input line: GET /values?readout=half-life&item= `Oc1ccc(C(c2ccc(O)cc2)(C(F)(F)F)C(F)(F)F)cc1`
Output line: 9.02

---

- Assay Comment: Plasma toxicokinetics after single gavage administration in rats
- Format: in vivo, Harlan Sprague Dawley rats
- Condition Notes: female, Harlan Sprague Dawley (Hsd:Sprague Dawley SD), rat, plasma, po, 34 mg/kg
Property Label: AUC(0-inf) (µM·h)
Numbers only; they are read as µM·h.

Input line: GET /values?readout=AUC(0-inf)&item= `Oc1ccc(C(c2ccc(O)cc2)(C(F)(F)F)C(F)(F)F)cc1`
Output line: 1.37

---

- Assay Comment: Plasma toxicokinetics after single gavage administration in mice
- Assay type: in vivo, B6C3F1/N mice
- Condition Notes: male, B6C3F1/N, mouse, plasma, po, 34 mg/kg
Property Label: Cmax (µg/mL)
Numbers only; they are read as µg/mL.

Input line: GET /values?readout=Cmax&item= Oc1ccc(C(c2ccc(O)cc2)(C(F)(F)F)C(F)(F)F)cc1 [BPAF, Bisphenol AF]
Output line: 0.0641

---

- Assay Comment: Plasma toxicokinetics after single gavage administration in mice
- Type: in vivo, B6C3F1/N mice
- Condition Notes: male, B6C3F1/N, mouse, plasma, po, 34 mg/kg
Property Label: AUC(0-inf) (µg·h/mL)
Numbers only; they are read as µg·h/mL.

Input line: GET /values?readout=AUC(0-inf)&item= Oc1ccc(C(c2ccc(O)cc2)(C(F)(F)F)C(F)(F)F)cc1 [BPAF, Bisphenol AF]
Output line: 0.425

---

- Assay Comment: Plasma toxicokinetics after single intravenous administration in mice
- Assay type: in vivo, B6C3F1/N mice
- Condition Notes: female, B6C3F1/N, mouse, iv, 34 mg/kg, Alpha half-life, free BPAF, female mice, 34 mg/kg IV, mean (SE)
Property Label: half-life (min)
Numbers only; they are read as min.

Input line: GET /values?readout=half-life&item= `Oc1ccc(C(c2ccc(O)cc2)(C(F)(F)F)C(F)(F)F)cc1`
Output line: 6.36

---

- Assay Comment: Plasma toxicokinetics after single intravenous administration in rats
- Type: in vivo, Harlan Sprague Dawley rats
- Condition Notes: male, Hsd:Sprague Dawley SD, rat, iv, 34 mg/kg
Property Label: Vd (L/kg)
Numbers only; they are read as L/kg.

Input line: GET /values?readout=Vd&item= `Oc1ccc(C(c2ccc(O)cc2)(C(F)(F)F)C(F)(F)F)cc1`
Output line: 0.7

---

- Assay Comment: Plasma toxicokinetics after single intravenous administration in rats
- Type: in vivo, Harlan Sprague Dawley rats
- Condition Notes: female, Hsd:Sprague Dawley SD, rat, iv, 34 mg/kg
Property Label: Cmax (µg/mL)
Numbers only; they are read as µg/mL.

Input line: GET /values?readout=Cmax&item= Oc1ccc(C(c2ccc(O)cc2)(C(F)(F)F)C(F)(F)F)cc1 [BPAF, Bisphenol AF]
Output line: 71.5
